Data origin: PubChem BioAssay AID1347426

assay: Novel Modifiers of Survival Motor Neuron (SMN) Protein: Gene Identification via Genome-wide siRNA Screen; conditions: HEK293T SMN2-luciferase reporter, siRNA knockdown, 72 h; actives lie on both sides;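 also: luminescence tracks full-length SMN protein made from the SMN2 reporter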
Screen size: about 31,000 sequences; about 1,400 (4.5%) were called active. Many of the other results were omitted from the sample, so actives are more common in it than they were.
EXPERIMENTAL READOUT: median seed-adjusted z-score

query_sequence="ACCCUGCUAUACUCCCUAUTT against MAPKAPK3" result="-0.506 (inactive)"
query_sequence="ACAGUCUUGUGAUCAGAAATT against UHRF1" result="0.231 (inactive)"
query_sequence="GGCUGCACAUAUACCUUAATT against RRN3" result="0.0382 (inactive)"
query_sequence="GGGAGACCUCGAUCGUGAATT against RASA4" result="-1.11 (active)"
query_sequence="CAAUCCAACUAGUAGUUCATT against SP4" result="-0.088 (inactive)"
query_sequence="GAGACGAGGAGGAAACUUUTT against DDX27" result="-0.131 (inactive)"
query_sequence="GCUACGAGUUUACUAUCUUTT against TNIK" result="0.154 (inactive)"
query_sequence="CAGUGUAAUUAGGCAACUATT against MYO3A" result="0.0776 (inactive)"
query_sequence="GGACCGUCUACUCAUCCAATT against IL8RB" result="-0.387 (inactive)"
query_sequence="GAUUUUCACUUGCAACUCATT against PDP2" result="-0.0726 (inactive)"
query_sequence="GACUCUCUACCAUGGAUUUTT against SLC25A42" result="-1.02 (active)"
query_sequence="GCCUAGAAGUGGAACGUGUTT against IFT57" result="-1.1 (active)"

----------
test: Novel Modifiers of Survival Motor Neuron (SMN) Protein: Gene Identification via Genome-wide siRNA Screen; conditions: HEK293T SMN2-luciferase reporter, siRNA knockdown, 72 h; actives lie on both sides;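 also: luminescence tracks full-length SMN protein made from the SMN2 reporter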
Hit rate of the full screen: of about 31,000 sequences, about 1,400 (4.5%) were called active. This is one part of a sample in which actives are shown more often than they occur.
EXPERIMENTAL READOUT: median seed-adjusted z-score

query_sequence="GUUCCUUAUUGUUAAGGUATT against PCDHB10" result=-0.09
query_sequence="GAGUCAACCCAUACAUUAATT against PLS1" result=-0.0715
query_sequence="GCUCCUCGUUUGUAGAAGATT against SLIT3" result=-0.453
query_sequence="GGCCUUAGAUGAGUCCCUATT against PABPN1" result=-0.757
query_sequence="GCUUCCCGAUUAACUGAAATT against MECP2" result=-0.332
query_sequence="GGAAGUACAUGAACGCAGUTT against EFTUD1" result=-1.39
query_sequence="CCUCAACUCUAAAUACUCATT against ZNF716" result=0
query_sequence="GAGUCACAAUCGCAUGAAATT against FKBP9" result=0.359
query_sequence="GGCUAACUAUUUUGUCAGATT against ABHD7" result=-0.301
query_sequence="CCAAAGCUCUCAUCGGAGATT against GNS" result=0
query_sequence="CAAAUUGAGUCACUCUUAATT against MGAT2" result=-0.124
query_sequence="CCAACUGUGUGGCAGAACGTT against FKBP9L" result=0.666
query_sequence="GACCUGGGCUUAGACAGUUTT against NDUFAB1" result=-0.282
query_sequence="GUAUAGAUCUCUAUUUCUATT against COPZ1" result=-1.02
query_sequence="CCAUCUGCUUUCCCGAGUATT against GNAZ" result=-0.604
